# test_target: T1, PDZD7_3, Q9H5P4
# T1 sequence (Q9H5P4 857-944, limits assumed, looked up): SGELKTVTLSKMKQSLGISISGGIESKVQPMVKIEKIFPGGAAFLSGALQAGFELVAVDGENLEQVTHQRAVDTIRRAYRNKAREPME
# assay_name: holdup assay
# Parameters: key: below the threshold = too weak to quantify, mostly under pKd 3.1 to 4
# experimental_context: plain residues with an end cap or a label only (N-terminal biotin on a linker: ado-ado)
endpoint: pKd

Answered examples (5):
[[record]]
binder = "TSSMRGMDAV [RSRC2, Q7L4I2]"
result = "below the threshold"

[[record]]
binder = "HLRARKSEWV [GJD4, Q96KN9]"
result = "below the threshold"

[[record]]
binder = "LRSPRTPSEV [OR10G3, Q8NGC4]"
result = "below the threshold"

[[record]]
binder = "GSGAVEMESV [AQP6, Q13520]"
result = "below the threshold"

[[record]]
binder = "KKMPSIESDV [GRIN2A, Q12879]"
result = "below the threshold"


Task item: Annotate the binder IKAIVDLTGL [TRAF2, Q12933] with its measured pKd.
Reply: below the threshold
